Biological target: biotin-labeled human IL1RAP (human) (UniProt Q9NPH3)
Sequence (Q9NPH3 21-367 limits assumed): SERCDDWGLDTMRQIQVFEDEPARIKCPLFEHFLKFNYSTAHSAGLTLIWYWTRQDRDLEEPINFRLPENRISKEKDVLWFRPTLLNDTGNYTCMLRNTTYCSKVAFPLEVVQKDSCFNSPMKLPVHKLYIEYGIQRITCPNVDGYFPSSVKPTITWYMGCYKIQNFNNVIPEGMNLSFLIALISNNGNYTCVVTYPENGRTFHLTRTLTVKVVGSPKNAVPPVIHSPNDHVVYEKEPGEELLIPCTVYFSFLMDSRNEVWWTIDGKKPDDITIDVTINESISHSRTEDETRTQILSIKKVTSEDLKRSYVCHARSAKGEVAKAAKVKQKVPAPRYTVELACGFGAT
Assay: competition ELISA; competitor: capture mAb067 coated; biotin-hIL1RAP
Assay endpoint: % inhibition

Examples from the recorded data:
| Binder | % inhibition |
| --- | --- |
| mAb063 (antibody, V domains shown) VH: EVQLQQSGPELVKPGASVKISCKASGYTFTDYYMNWVKQSHGKSLEWIGHINPNSGSTTYTEKFKDKATLTVDKSSSTAYMELRSLTSDDSAVYYCVRRIGKNWHCDVWGTGTTVTVSS VL: DIVLTQSPASLAVSLGQRATISCRASESVNFHGTHLMHWYQQKPGQAPKLLIYAASNLDSGVPARFSGSGSETDFTLNIHPVEEEDAATYFCQQSIEDPFTFGSGTYLEIK | 87% |
| murine mAb117 (antibody, V domains shown) VH: QAYLQQSGAELVRPGASVKMSCKASGYTFTSYNMHWVKQSPRQGLEWVGVFYLGNGDTSYNEKFKGKATLTVDKSSSTAYMQLSSLTSEDSAVYFCARPGGYANWYFDVWGTGTTVTVSS VL: DIVMTQSQKFMSTSVGDWVSVTCKASQNVGTEVSWYQQKPGQSPNTLIYSASYRHSGVPDRFTGSGSGTEFTLTITNVQSEDLADYFCQQYNSFPLTFGAGTKLDLK | 86% |

# input for lookup
Please report the measured % inhibition for murine mAb048 (antibody, V domains shown) VH: QVQLQQPGADLVKPGASVKLSCKAYGYTFFSYWMHWVRQRPGQGLEWIGMIHPNSGTTNNNEKFKSKATLTVDKSFSTAYMQLSSLTSEDSAVYYCARGYSNYDFDYWGQGTILTVSS VL: DIKMTQFPSSMYASLGERVTITCKASQDINTYLIWIQQKPGKSPKTLIYRANRLADGVPSRFSGSGSGQDSSLTISSLEHEDMGIYYCLQYDEFPYTFGGGTKLEIK 90%
